- measuredTarget: UniProt Q9UL62
- Sequence (Q9UL62 whole entry): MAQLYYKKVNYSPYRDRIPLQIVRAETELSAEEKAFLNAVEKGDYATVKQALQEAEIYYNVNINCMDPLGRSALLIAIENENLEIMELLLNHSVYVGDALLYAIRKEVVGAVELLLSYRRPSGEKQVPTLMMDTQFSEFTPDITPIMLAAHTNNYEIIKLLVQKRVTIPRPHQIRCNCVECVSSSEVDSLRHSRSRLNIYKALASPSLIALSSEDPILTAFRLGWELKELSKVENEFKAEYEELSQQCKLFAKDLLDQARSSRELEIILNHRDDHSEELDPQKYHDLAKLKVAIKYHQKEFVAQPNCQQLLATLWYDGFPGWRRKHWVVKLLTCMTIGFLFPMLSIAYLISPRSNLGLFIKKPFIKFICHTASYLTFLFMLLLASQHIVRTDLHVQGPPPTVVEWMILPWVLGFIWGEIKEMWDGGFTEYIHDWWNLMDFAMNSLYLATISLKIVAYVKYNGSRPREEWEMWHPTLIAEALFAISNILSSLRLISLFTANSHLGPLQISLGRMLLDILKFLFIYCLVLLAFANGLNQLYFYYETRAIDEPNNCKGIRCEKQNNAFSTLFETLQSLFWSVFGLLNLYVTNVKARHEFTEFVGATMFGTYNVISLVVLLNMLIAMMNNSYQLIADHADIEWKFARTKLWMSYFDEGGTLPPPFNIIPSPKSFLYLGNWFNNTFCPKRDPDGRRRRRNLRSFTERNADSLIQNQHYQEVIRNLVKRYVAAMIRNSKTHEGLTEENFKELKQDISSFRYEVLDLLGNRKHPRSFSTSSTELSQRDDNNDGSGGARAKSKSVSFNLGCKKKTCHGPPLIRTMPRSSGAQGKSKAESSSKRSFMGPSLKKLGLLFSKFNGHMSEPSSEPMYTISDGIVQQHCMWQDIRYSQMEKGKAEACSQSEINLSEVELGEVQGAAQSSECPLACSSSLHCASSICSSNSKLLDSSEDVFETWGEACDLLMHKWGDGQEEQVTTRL
- protocolDetails: Assay A: Determination of TRPC5-Inhibition (whole-cell patch clamp)
- measurementParameters: compounds of the present invention, TRPC5-expressing HEK293 TREx cells, current activated by LaCl3
Decide using IC50 alone. Strictly below 0.5 nM: yes. Equal to or above 0.5 nM: no.

Observe how each entry below is paired with its result.
molecule	measuredTarget	assignedClass
CCn1c(=O)n(CCCO)c(=O)c2c1nc(-c1ncc(OC3CCC3C)nc1C)n2Cc1ccc(F)cc1 (stereo not drawn) [Example 5]	UniProt Q9UL62	yes
CCn1c(=O)n(CCCO)c(=O)c2c1nc(-c1ncc(OC3CCC3)nc1C)n2Cc1ccccc1 [Example 6]	UniProt Q9UL62	no
CCn1c(=O)n(CCCO)c(=O)c2c1nc(-c1cnc(OC3CCC3)cn1)n2Cc1ccccc1 [Example 4]	UniProt Q9UL62	no
CCn1c(=O)n(CCCO)c(=O)c2c1nc(-c1ncc(OC3CCC3C)nc1C)n2Cc1ccc(Cl)cc1 (stereo not drawn) [Example 1]	UniProt Q9UL62	yes

Now consider a different molecule.
Identify whether the molecule Cc1nc(OC2CCC2)cnc1-c1nc2c(c(=O)n(CCCO)c(=O)n2C(C)C)n1Cc1ccccc1 [Example 2] records IC50 below 0.5 nM.
yes
